Molecular target: ERα (Homo sapiens, UniProt P03372)
Sequence (P03372 whole entry): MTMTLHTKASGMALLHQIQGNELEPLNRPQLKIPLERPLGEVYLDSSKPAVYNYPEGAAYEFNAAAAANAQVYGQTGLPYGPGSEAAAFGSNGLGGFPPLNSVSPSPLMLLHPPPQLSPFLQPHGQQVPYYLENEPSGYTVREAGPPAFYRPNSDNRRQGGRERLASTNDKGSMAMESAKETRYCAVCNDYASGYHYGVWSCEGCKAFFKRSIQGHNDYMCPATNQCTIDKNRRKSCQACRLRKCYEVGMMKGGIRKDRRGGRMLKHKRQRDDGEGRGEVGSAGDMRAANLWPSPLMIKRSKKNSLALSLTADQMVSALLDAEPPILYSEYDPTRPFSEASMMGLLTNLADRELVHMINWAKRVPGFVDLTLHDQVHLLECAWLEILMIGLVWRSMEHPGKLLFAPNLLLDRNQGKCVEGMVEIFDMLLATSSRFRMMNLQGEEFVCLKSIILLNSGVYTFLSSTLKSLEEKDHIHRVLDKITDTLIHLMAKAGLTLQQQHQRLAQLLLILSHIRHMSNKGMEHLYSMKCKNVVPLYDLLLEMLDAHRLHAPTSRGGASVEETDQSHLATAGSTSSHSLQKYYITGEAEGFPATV
Assay: Degradation of ERα in MCF-7 cells (immunoblotting, 4 h)
Type: cell-based
Details: 1nM compound
Procedure: MCF-7 cells were inoculated into 6-well plates at a density of 3×10^5 cells/well and cultured at 37°C, 5% CO2 for 24h. […] Protein immunoblotting: The total protein concentration in the collected cell lysate supernatant was determined by BCA Protein Concentration Assay Kit (Enhanced) (P0009, Beyotime). […] Protein profiles were analyzed by Image Studio Lite analysis software for grayscale values. […]
Classification field: YES = Degradation rate (%) of ERα in MCF-7 cells at or over 30%; NO = Degradation rate (%) of ERα in MCF-7 cells under 30%.

1. O=C1CCC(N2Cc3c(ccc4c3OCC43CCN(C[C@H]4CC[C@H](C(=O)N5CCN(c6ccc([C@@H]7c8ccc(O)cc8CC[C@@H]7c7ccccc7)cc6)CC5)CC4)CC3)C2=O)C(=O)N1 (some centres unmarked) : YES
2. O=C1CCC(N2Cc3cc4c(cc3C2=O)CCC2(CN(CC3CCN(c5ccc([C@@H]6c7ccc(O)cc7CC[C@@H]6c6ccccc6)cc5)CC3)C2)O4)C(=O)N1 (some centres unmarked) : NO

Inquiry: Check if Degradation rate (%) of ERα in MCF-7 cells >= 30% (inclusive). Item: O=C1CCC(N2Cc3c(ccc4c3OCC43CCN(C(=O)C4CCC(N5CCN(c6ccc([C@@H]7c8ccc(O)cc8CC[C@@H]7c7ccccc7)cc6)CC5)CC4)CC3)C2=O)C(=O)N1 (some centres unmarked)
Reply text: YES

Inquiry: Check if Degradation rate (%) of ERα in MCF-7 cells >= 30% (inclusive). Item: O=C1CCC(N2Cc3c(ccc4c3OCC43CCN(C(=O)C4CCC(CN5CCC(C#Cc6ccc(C7c8ccc(O)cc8CCC7c7ccccc7)cc6)CC5)CC4)CC3)C2=O)C(=O)N1 (centres unmarked)
Reply text: NO

Inquiry: Check if Degradation rate (%) of ERα in MCF-7 cells >= 30% (inclusive). Item: CN(CC(=O)N1CCC2(CC1)COc1c2ccc2c1CN(C1CCC(=O)NC1=O)C2=O)C1CC2(CCN(c3ccc([C@@H]4c5ccc(O)cc5CC[C@@H]4c4ccccc4)cc3)CC2)C1 (some centres unmarked)
Reply text: YES

Inquiry: Check if Degradation rate (%) of ERα in MCF-7 cells >= 30% (inclusive). Item: C[C@@H]1Cc2c([nH]c3ccccc23)[C@@H](c2c(F)cc(N3CCC(C(=O)N4CCC(N5CCC6(CC5)COc5c6ccc6c5CN(C5CCC(=O)NC5=O)C6=O)[C@H](F)C4)CC3)cc2F)N1CC(F)F (some centres unmarked)
Reply text: NO
